All figures here come from patent US20250027068.

Each entry below lists one item and its recorded Enzyme Activity Endpoint Assay (purified): Fab′2 value.
Assay system: pooled human IgG
Just the number please, in ng/µL, no unit attached.

Example entries begin here.
Request: Which Enzyme Activity Endpoint Assay (purified): Fab′2 reading was recorded for the protein PRT-678 (protein) MQITTVWTKGVTPLTPEQFRYNNEEVIHAPYKAGQGWYDITKVFDGKDNLLCGAATAGNMLHWWFDQNKTEIEAYLSKHPEKQKIIFNNQELFDLKRAIDDKDSQTNSQLFNYFRDKAFPNLSARQLGVMPDLVLDMFINGYYLNVFKTQSTDVNRPYQDPDKRGGIFDDVFGKGDQTTLLTARHDLKNLGLEDISTIIKQELRNGRALALSHTYANVSISHVINLWGADFNAEGNLSAIYVTDSDANNSIGMKKYKVGYNAHGRVAISAKKIEGENIGAQVLGLFTLSSGKDIWQKLSLEHHHHHH ?
Response: 56

Request: Using the record for PRT-668 (protein) MQITSVWTKGVTPLTPEQFRYNNYDVFHAPYLAGQGWYDITKAFDGKDNLLCGAATAGNMLHWWFDQNKTEIEAYLSKYPEKQKIIFNNQELFDLRKAINTKDSQTNSELFNYFRDKAFPNLSARQLGVMPDLVLDMFINGYYLNVFKTQSTDVNRPYQDKDKRGGIFDAVFNRGDQTKLLTARHDLKNKGLNDISTLIKQELSSGRALALSHTTANVSISHVINLWGADFNAEGNLEAIYVTDSDDDSNIGMKKYKVGINASGHVAISAKKIEGENIGAQVLGLFTLSSGKDIWQKLSLEHHHHHH , report its Enzyme Activity Endpoint Assay (purified): Fab′2.
Response: 563

Request: Name the recorded Enzyme Activity Endpoint Assay (purified): Fab′2 for PRT-612 (protein) MQITSVWTKGVTPLTPEQFRYNNEDVIHAPYLAHQGWYDITKAFDGKDNLLCGAATAGNMLHWWFDQNKTEIEAYLSKHPEKQKIIFNNQELFDLRAAINSKDSQTNSQLFNYFRDKAFPNLSARQLGVMPDLVLDMFINGYYLNVFKTQSTDVNRPYQDKDKRGGIFDAVFTRGDQTTLLTARHDLKNKGLNDISTIIKQELTEGRALALSHTYANVSISHVINLWGADFNAEGNLEAIYVTDSDANASIGMKKYFVGINAHGHVAISAKKIEGENIGAQVLGLFTLSSGKDIWQKLSLEHHHHHH .
Response: 986

Now for the protein whose Enzyme Activity Endpoint Assay (purified): Fab′2 we want.
Request: Item under review: PRT-55 (protein) MANQEIRYSEVTPYHVTSVWTKGVTPPANFTQGEDVFHAPYVANQGWYDITKTFNGKDDLLCGAATAGNMLHWWFDQNKDQIDRYLEEHPEKAKINFNGEQMFDVKEAIDTKNHQLDSKLFEYFKEKAFPYLSTKHLGVFPDLVIDMFINGYRLSLTNHGPTPVKEGSKDPRGGFFDAVFGRGDQSKLLTSRHDFKEKNLKEISDLIKKELTEGKALGLSHTYANVRINHVINLWGADFDSNGNLKAIYVTDSDSNASIGMKKYFVGVNSAGKVAISAKEIKEDNIGAQVLGLFTLSTGQDSWNQTN . Reported Enzyme Activity Endpoint Assay (purified): Fab′2?
Response: 0
